B1: ZNF649 (parent)
chain: YHTGKTPFVCPECGQPCSQKSGLI

Variants of: B1
Assay Method Text: protein stability index of a GFP-peptide fusion (GPS, HEK-293T) (PSI 1-6); higher = more stable;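 further: lentivirally expressed fusions sorted by FACS into six bins by GFP to DsRed ratio, PSI derived from sequencing read proportions per bin multiplied by bin number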
Assay Setup: c terminus: a fixed tail appended
Recorded Metric: protein stability index
No unit in the answer, only the number.

>>> reported_measurement("V9F")
3.17
>>> reported_measurement("G22N")
2.3
>>> reported_measurement("V9Q")
2.02
>>> reported_measurement("C10N")
2.23
>>> reported_measurement("E12I")
1.91

Entry Y1T — recorded protein stability index = 3.06

Recorded result, Q19C , protein stability index: 2.69

Reported protein stability index for C10M was 1.53

protein stability index reading for P11S : 1.93

protein stability index measured on H2Q = 2.28

The variant identified as K20Q registered its protein stability index at 3.76

Per the record, G4K has protein stability index of 2.18

Looking up K20M , I found its protein stability index recorded as 1.53

Record F8N , field protein stability index: 2.16

Measured protein stability index of H2F : 2.25

Note to self: protein stability index recorded for C10L was 2.06
